# method_notes: Water solubility of the compound in 80% acetronitrile/20% water meausred after 24 hrs by HPLC-UV analysis
# Format: physicochemical
# condition_parameters: 80% acetonitrile/20% water
Give TRUE when the value for solubility at 24 h is at least 2 µg/mL. Give FALSE when it is less.

Input line: Decide: is the reported value of solubility at 24 h for CC(C)(ON=C1CCC(CN2CCN(c3nc(=O)c4cc(C(F)(F)F)cc([N+](=O)[O-])c4s3)CC2)CC1)C(=O)O (configuration not stated) equal to or greater than 2 µg/mL?
Output line: TRUE

Input line: Decide: is the reported value of solubility at 24 h for CC(C)(C)OC(=O)CNC(=O)C(C)(C)ON=C1CCC(CN2CCN(c3nc(=O)c4cc(C(F)(F)F)cc([N+](=O)[O-])c4s3)CC2)CC1 (configuration not stated) equal to or greater than 2 µg/mL?
Output line: TRUE

Input line: Decide: is the reported value of solubility at 24 h for O=c1nc(N2CCN(CC3CCCCC3)CC2)sc2c([N+](=O)[O-])cc(C(F)(F)F)cc12 equal to or greater than 2 µg/mL?
Output line: FALSE

Input line: Decide: is the reported value of solubility at 24 h for CC(C)(C)OC(=O)NCCON=C1CCC(CN2CCN(c3nc(=O)c4cc(C(F)(F)F)cc([N+](=O)[O-])c4s3)CC2)CC1 (configuration not stated) equal to or greater than 2 µg/mL?
Output line: TRUE

Input line: Decide: is the reported value of solubility at 24 h for CON=C1CCC(CN2CCN(c3nc(=O)c4cc(C(F)(F)F)cc([N+](=O)[O-])c4s3)CC2)CC1 (configuration not stated) equal to or greater than 2 µg/mL?
Output line: FALSE

Input line: Decide: is the reported value of solubility at 24 h for CC(C)(ON=C1CCC(CN2CCN(c3nc(=O)c4cc(C(F)(F)F)cc([N+](=O)[O-])c4s3)CC2)CC1)C(=O)NCC(=O)O (configuration not stated) equal to or greater than 2 µg/mL?
Output line: TRUE

Input line: Decide: is the reported value of solubility at 24 h for O=C(O)CON=C1CCC(CN2CCN(c3nc(=O)c4cc(C(F)(F)F)cc([N+](=O)[O-])c4s3)CC2)CC1 (configuration not stated) equal to or greater than 2 µg/mL?
Output line: TRUE

* * *

# method_notes: Cytotoxicity against African green monkey Vero cells assessed as reduction in cell viability incubated for 72 hrs by MTT assay
# Type: toxicity, cell-based
# condition_parameters: chlorocebus sabaeus
assay_endpoint: CC50 at 72 h

Input line: Item O=C(O)CON=C1CCC(CN2CCN(c3nc(=O)c4cc(C(F)(F)F)cc([N+](=O)[O-])c4s3)CC2)CC1 (stereo not drawn) has what recorded CC50 at 72 h?
Output line: > 118 µM

Input line: Item CC(C)(C)OC(=O)CNC(=O)CON=C1CCC(CN2CCN(c3nc(=O)c4cc(C(F)(F)F)cc([N+](=O)[O-])c4s3)CC2)CC1 (stereo not drawn) has what recorded CC50 at 72 h?
Output line: > 98 µM

Input line: Item CC(C)(C)OC(=O)NCCON=C1CCC(CN2CCN(c3nc(=O)c4cc(C(F)(F)F)cc([N+](=O)[O-])c4s3)CC2)CC1 (stereo not drawn) has what recorded CC50 at 72 h?
Output line: > 102 µM

Input line: Item O=C(O)CNC(=O)CCON=C1CCC(CN2CCN(c3nc(=O)c4cc(C(F)(F)F)cc([N+](=O)[O-])c4s3)CC2)CC1 (stereo not drawn) has what recorded CC50 at 72 h?
Output line: > 104 µM

Input line: Item O=C(O)CNC1CCC(CN2CCN(c3nc(=O)c4cc(C(F)(F)F)cc([N+](=O)[O-])c4s3)CC2)CC1 (stereo not drawn) has what recorded CC50 at 72 h?
Output line: > 121 µM

Input line: Item CC(C)(C)OC(=O)CNC(=O)C(C)(C)ON=C1CCC(CN2CCN(c3nc(=O)c4cc(C(F)(F)F)cc([N+](=O)[O-])c4s3)CC2)CC1 (stereo not drawn) has what recorded CC50 at 72 h?
Output line: > 94 µM

Input line: Item C[C@H](NC(=O)CON=C1CCC(CN2CCN(c3nc(=O)c4cc(C(F)(F)F)cc([N+](=O)[O-])c4s3)CC2)CC1)C(=O)OC(C)(C)C (stereo partly drawn) has what recorded CC50 at 72 h?
Output line: > 95 µM

Input line: Item CC(C)(C)OC(=O)CCON=C1CCC(CN2CCN(c3nc(=O)c4cc(C(F)(F)F)cc([N+](=O)[O-])c4s3)CC2)CC1 (stereo not drawn) has what recorded CC50 at 72 h?
Output line: > 104 µM

Input line: Item C[C@H](NC(=O)C(C)(C)ON=C1CCC(CN2CCN(c3nc(=O)c4cc(C(F)(F)F)cc([N+](=O)[O-])c4s3)CC2)CC1)C(=O)OC(C)(C)C (stereo partly drawn) has what recorded CC50 at 72 h?
Output line: > 92 µM

Input line: Item O=c1nc(N2CCN(CC3CCCCC3)CC2)sc2c([N+](=O)[O-])cc(C(F)(F)F)cc12 has what recorded CC50 at 72 h?
Output line: > 140 µM

Input line: Item O=C(O)CCON=C1CCC(CN2CCN(c3nc(=O)c4cc(C(F)(F)F)cc([N+](=O)[O-])c4s3)CC2)CC1 (stereo not drawn) has what recorded CC50 at 72 h?
Output line: > 115 µM

Input line: Item CC(C)(C)OC(=O)CNC(=O)CCON=C1CCC(CN2CCN(c3nc(=O)c4cc(C(F)(F)F)cc([N+](=O)[O-])c4s3)CC2)CC1 (stereo not drawn) has what recorded CC50 at 72 h?
Output line: > 95 µM

Input line: Item CC(C)(ON=C1CCC(CN2CCN(c3nc(=O)c4cc(C(F)(F)F)cc([N+](=O)[O-])c4s3)CC2)CC1)C(=O)O (stereo not drawn) has what recorded CC50 at 72 h?
Output line: > 112 µM

Values from ChEMBL document CHEMBL6127042
